Molecular target: Ionotropic glutamate receptor NMDA 1/2D (Rattus norvegicus, UniProt P35439+Q62645)
Sequence (Q62645 whole entry, other chains not shown): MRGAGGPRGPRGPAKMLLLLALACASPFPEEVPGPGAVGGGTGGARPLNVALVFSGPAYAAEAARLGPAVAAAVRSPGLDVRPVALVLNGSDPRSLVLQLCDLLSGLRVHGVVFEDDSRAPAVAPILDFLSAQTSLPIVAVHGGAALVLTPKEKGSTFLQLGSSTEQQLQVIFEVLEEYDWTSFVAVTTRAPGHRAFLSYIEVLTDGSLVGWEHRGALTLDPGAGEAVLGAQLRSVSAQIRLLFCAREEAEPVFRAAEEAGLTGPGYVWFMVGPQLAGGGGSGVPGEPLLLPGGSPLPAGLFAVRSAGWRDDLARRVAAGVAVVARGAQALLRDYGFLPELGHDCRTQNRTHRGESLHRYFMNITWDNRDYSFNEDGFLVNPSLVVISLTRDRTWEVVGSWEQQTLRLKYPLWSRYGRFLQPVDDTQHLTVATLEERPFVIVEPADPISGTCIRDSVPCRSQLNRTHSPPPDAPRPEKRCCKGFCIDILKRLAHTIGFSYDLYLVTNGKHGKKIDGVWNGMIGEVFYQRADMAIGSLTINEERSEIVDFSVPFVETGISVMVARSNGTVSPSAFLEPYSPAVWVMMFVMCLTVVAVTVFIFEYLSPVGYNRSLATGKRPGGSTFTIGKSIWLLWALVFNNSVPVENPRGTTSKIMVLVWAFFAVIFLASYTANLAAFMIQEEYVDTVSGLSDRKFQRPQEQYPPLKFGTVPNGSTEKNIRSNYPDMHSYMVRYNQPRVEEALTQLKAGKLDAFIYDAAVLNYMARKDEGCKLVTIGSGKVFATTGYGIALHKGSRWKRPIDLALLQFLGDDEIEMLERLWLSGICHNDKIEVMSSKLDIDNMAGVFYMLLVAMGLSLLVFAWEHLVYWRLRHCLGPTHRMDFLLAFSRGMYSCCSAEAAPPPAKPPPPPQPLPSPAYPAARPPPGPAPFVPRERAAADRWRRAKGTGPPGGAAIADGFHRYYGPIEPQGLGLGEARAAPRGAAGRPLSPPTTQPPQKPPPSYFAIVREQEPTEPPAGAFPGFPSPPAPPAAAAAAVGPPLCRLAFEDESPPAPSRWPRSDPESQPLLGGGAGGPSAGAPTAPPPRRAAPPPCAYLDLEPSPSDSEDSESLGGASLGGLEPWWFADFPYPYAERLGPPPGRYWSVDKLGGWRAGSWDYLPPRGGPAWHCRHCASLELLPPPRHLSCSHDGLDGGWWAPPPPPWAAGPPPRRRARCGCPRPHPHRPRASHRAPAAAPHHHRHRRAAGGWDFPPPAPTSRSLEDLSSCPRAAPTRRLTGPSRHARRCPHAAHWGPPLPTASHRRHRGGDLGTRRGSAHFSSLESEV
Test: Inhibition of rat recombinant GluN1/GluN2D expressed in Xenopus laevis oocytes assessed as reduction in current response
MEASURED_ENDPOINT: IC50

Item COC(=O)c1ccc(C2C(C(=O)c3ccncc3)=C(O)C(=O)N2CCc2cccc3ccccc23)cc1 (stereo unspecified) : provide IC50
5.7 µM

* * *

Target: Glutamate NMDA receptor; Grin1/Grin2c (Rattus norvegicus) (UniProt P35439+Q00961)
Assay: Potentiation of rat recombinant GluN1/GluN2C expressed in Xenopus laevis oocytes assessed as increase in glutamate/glycine-induced current response at 30 uM by two-electrode voltage clamp technique relative to control
Type: cell-based
Kindly supply the reported Activity values for the records listed here.

Use the examples below as a reference point.
# MOLECULE, Activity
measured = [
    ("COC(=O)c1ccc(C2C(C(=O)c3cccc(F)c3)=C(O)C(=O)N2CCc2c[nH]c3ccccc23)cc1 (configuration not stated)", "133%"),
    ("COC(=O)c1ccc(C2C(C(=O)C(C)(C)C)=C(O)C(=O)N2CCc2c[nH]c3ccccc23)cc1 (configuration not stated)", "129%"),
    ("CC(=O)C1=C(O)C(=O)N(CCc2c[nH]c3ccccc23)C1c1ccc([N+](=O)[O-])cc1 (configuration not stated)", "94%"),
    ("COC(=O)c1ccc(C2C(C(C)=O)=C(O)C(=O)N2CCc2c[nH]c3ccccc23)cc1O (configuration not stated)", "123%"),
    ("CCOC(=O)c1ccc(C2C(C(=O)c3cccnc3)=C(O)C(=O)N2CCc2c[nH]c3ccccc23)cc1 (configuration not stated)", "201%"),
    ("COC(=O)c1ccc(C2C(C(=O)c3ccccc3)=C(O)C(=O)N2CCc2c[nH]c3ccccc23)cc1 (configuration not stated)", "143%"),
    ("COC(=O)c1ccc(C2C(C(=O)c3cccnc3)=C(O)C(=O)N2CCc2c(C)[nH]c3ccccc23)cc1 (configuration not stated)", "174%"),
    ("COC(=O)c1ccc(C2C(C(C)=O)=C(O)C(=O)N2CCc2c[nH]c3ccccc23)cc1OC (configuration not stated)", "92%"),
    ("CCOC(=O)c1ccc(C2C(C(=O)c3ccncc3)=C(O)C(=O)N2CCc2c[nH]c3ccccc23)cc1 (configuration not stated)", "223%"),
    ("COC(=O)c1ccc(C2C(C(=O)c3cccc(Cl)c3)=C(O)C(=O)N2CCc2c[nH]c3ccccc23)cc1 (configuration not stated)", "145%"),
]

Field: Activity. Fill in for each record below.
1. COC(=O)c1ccc(C2C(C(=O)c3cccnc3)=C(O)C(=O)N2CCc2c[nH]c3ccc(OC)cc23)cc1 (configuration not stated)
2. COC(=O)c1ccc(C2C(C(C)=O)=C(N)C(=O)N2CCc2c[nH]c3ccccc23)cc1 (configuration not stated)
3. COC(=O)c1ccc(C2C(C(C)=O)=C(O)C(=O)N2CCc2c[nH]c3ccccc23)c(OC)c1 (configuration not stated)
4. NS(=O)(=O)c1ccc(C2C(C(=O)c3cccnc3)=C(O)C(=O)N2CCc2c[nH]c3ccccc23)cc1 (configuration not stated)
5. COC(=O)c1ccc(C2C(C(C)=O)=C(O)C(=O)N2CCc2c[nH]c3ccccc23)c(F)c1 (configuration not stated)
6. CCC(=O)C1=C(O)C(=O)N(CCc2c[nH]c3ccccc23)C1c1ccc(C(=O)OC)cc1 (configuration not stated)
7. COC(=O)c1ccc(C2C(C(=O)c3cccnc3)=C(O)C(=O)N2CCc2c[nH]c3cc(Cl)ccc23)cc1 (configuration not stated)

94%
102%
132%
123%
123%
160%
170%

Field: Activity. Fill in for each record below.
1. COC(=O)c1ccc(C2C(C(C)=O)=C(O)C(=O)N2CCc2ccccc2)cc1 (configuration not stated)
2. NC(=O)c1ccc(C2C(C(=O)c3cccnc3)=C(O)C(=O)N2CCc2c[nH]c3ccccc23)cc1 (configuration not stated)
3. COC(=O)c1ccc(C2C(C(C)=O)=C(O)C(=O)N2CCc2c[nH]c3ccccc23)c(Cl)c1 (configuration not stated)
4. COC(=O)c1ccc(C2C(C(=O)c3cccnc3)=C(O)C(=O)N2CCc2cn(C)c3ccccc23)cc1 (configuration not stated)

95%
90%
139%
106%

Reference source: ChEMBL document CHEMBL3232993
